# Test system: OVCAR-8
# experimentalDetails: NCI tumour cell line growth inhibition, 48 h
Calls of active or inactive are those of the source. Cut-off read from the data, not from the text of the source: active = GI50 up to about 1.1 µM and inactive = higher.
Select the correct class. Options are 1 (active), 0 (inactive) and nothing else.

A selection of reference data follows.
molecule	targetOfAssay	assignedCategory
CC(=O)Nc1cc2cc(N)ccc2oc1=O	OVCAR-8	0
Cc1cccc(NC(=O)c2cccc([N+](=O)[O-])c2O)c1C	OVCAR-8	0
COc1ccc2sc(-n3nc4ccccc4c3Nc3nc4ccc(OC)cc4s3)nc2c1	OVCAR-8	0
Nc1ccc(CCN2CCN(CCCc3ccccc3)CC2)cc1	OVCAR-8	0
COc1ccc(C2SCC(=O)N2NC2=NC(=O)CC(=O)N2)cc1 (configuration not stated)	OVCAR-8	0
O=C(/C=C/C(=O)N1CCCC1)N1CCCC1	OVCAR-8	0

Consider now this further molecule.
// return assay outcome for COc1ccc(C(C#N)NC23CC4CC(CC(C4)C2)C3)cc1OC (configuration not stated)
0

* * *

# System: SR
# experimentalDetails: NCI tumour cell line growth inhibition, 48 h
The source made the active and inactive calls. No stated cut-off is given here; in the data, active = GI50 up to about 1.1 µM and inactive = higher.
Collected GI50 values appear next to each entry.

In [3]: df
Out[3]:
                             molecule           assayvalue
0  CCOC(=O)C1(F)S(=O)(=O)OCCOS1(=O)=O  > 100 µM (inactive)

Consider the molecule COc1cccc(N2C(=O)CS(=O)(=O)C2c2cccc(Oc3ccccc3)c2)c1 (centres undefined) and give its measured GI50.
3.13 µM (inactive)

Consider the molecule O=C(Oc1ccc(Cl)cc1[N+](=O)[O-])c1ccccc1 and give its measured GI50.
> 100 µM (inactive)

Consider the molecule COc1cc2c3cc1Oc1cc(ccc1O)C[C@@H]1c4c(cc(OC)c(O)c4Oc4ccc(cc4)C[C@@H]3N(C)CC2)CC[N+]1(C)C and give its measured GI50.
24.8 µM (inactive)

Consider the molecule CC(=O)N/C(=C\c1cccc([N+](=O)[O-])c1)c1nc2ccc3c(c2[nH]1)C(=O)c1ccccc1C3=O and give its measured GI50.
6.97 µM (inactive)

Consider the molecule COc1ccc2c(c1)-c1c(c3cc(OC)ccc3n1CCN(C)C)CC2 and give its measured GI50.
7.03 µM (inactive)

Consider the molecule Clc1ncnc2c1nc(C#Cc1ccccc1)n2Cc1ccccc1 and give its measured GI50.
3.08 µM (inactive)

Consider the molecule N#Cc1ccccc1NC(=O)/C(=N\N)C(C(=O)c1ccncc1)C1OC(=O)c2ccccc21 (centres undefined) and give its measured GI50.
> 100 µM (inactive)

Consider the molecule O=[N+]([O-])c1cc(/C=N/C23CC4CC(CC(C4)C2)C3)ccc1Cl and give its measured GI50.
4.37 µM (inactive)

* * *

# Test system: HCT-116
# experimentalDetails: NCI tumour cell line growth inhibition, 48 h
Activity calls are given as the source filed them. No stated cut-off is given here; in the data, active = GI50 up to about 1.1 µM and inactive = higher.
Select the correct class. Options are 1 (yes) for active, 0 (no) for inactive and nothing else.

A selection of reference data follows.
molecule	assignedCategory
COc1ccc(-c2cc(-c3ccc(Nc4ccnc5cc(Cl)ccc45)cc3)[nH]c(=O)c2C#N)c2ccccc12	0 (no)
CC(=O)c1cccc(NC2C(N)C(NC(=O)N(C)C)(C(C)O)C(C)(O)C2(O)COC(=O)c2c(C)cccc2O)c1 (stereo not given)	1 (yes)
COC(=O)C1(C(=O)OC)CC2=C(S(=O)(=O)c3ccccc3)C[C@@H](C#N)[C@H]2C1	0 (no)
COC(=O)CCCc1ccc2c(c1)CCC2	0 (no)
C=C(COC(C)=O)CC(/C=C(\C)CC/C=C(\C)CO)OC(C)=O (stereo not given)	0 (no)
CC(=O)O[C@H]1C(=O)[C@@]2(C)[C@H]([C@H](OC(=O)C3CCCCC3)[C@]3(O)C[C@H](OC(=O)[C@H](O)[C@@H](NC(=O)C4CCCCC4)C4CCCCC4)C(C)=C1C3(C)C)[C@]1(OC(C)=O)CO[C@@H]1C[C@@H]2O	1 (yes)

// return assay outcome for OCC(O)CNc1ncnc2ccccc12 (stereo not given)
0 (no)

// return assay outcome for C/C(=N\NC(=S)N1CCCCCCCCCCCC1)c1ccccn1
1 (yes)

// return assay outcome for CC1=CC23C(COC(=O)C24CO4)C(C(=O)O)=CC3C1C (stereo not given)
0 (no)

// return assay outcome for O=C1NCCCNCCCNCCCNC(=O)c2cccc1n2
0 (no)

// return assay outcome for COc1cc(C(=O)Nc2c3ccccc3nc3ccccc23)cc(OC)c1OC
0 (no)

// return assay outcome for COc1ccc(N(CC(=O)O)N=O)cc1
0 (no)

// return assay outcome for O=C(O)C1=NN=C(C(=O)O)NN1
0 (no)

// return assay outcome for COc1ccc(C(C)Nc2cc(OC)c(OC)c(OC)c2)cc1 (stereo not given)
0 (no)

// return assay outcome for Cc1cc([N+](=O)[O-])ccc1Sc1c2ccccc2nc2ccccc12
0 (no)

// return assay outcome for COC(=O)[C@]12CCC(C)(C)C[C@H]1C1=CC[C@@H]3[C@@]4(C)CC[C@H](OC5OC(CO)C(O)C(O)C5OC5OC(CO)C(O)C(O)C5O)C(C)(C)[C@@H]4CC[C@@]3(C)[C@]1(C)CC2 (stereo not given in full)
0 (no)
